Test system: Acinetobacter pittii
experiment: Antimicrobial activity against Acinetobacter genospecies 3 isolate Ac057 expressing beta-lactamase Oxa-58 by broth microdilution method
Format: functional
Reported MIC values for the following compounds.
Field: numeric (µg/mL). Do not append units.

Solved entries (count: 5):
CC[C@H]1OC(=O)[C@H](C)[C@@H](O[C@H]2C[C@@](C)(OC)[C@@H](O)[C@H](C)O2)[C@H](C)[C@@H](O[C@@H]2O[C@H](C)C[C@H](N(C)C)[C@H]2O)[C@](C)(O)C[C@@H](C)CN(C)[C@H](C)[C@@H](O)[C@]1(C)O    4
CO[C@H]1/C=C/O[C@@]2(C)Oc3c(C)c(O)c4c(O)c(c(/C=N/N5CCN(C)CC5)c(O)c4c3C2=O)NC(=O)/C(C)=C\C=C\[C@H](C)[C@H](O)[C@@H](C)[C@@H](O)[C@@H](C)[C@H](OC(C)=O)[C@@H]1C    2
NCC[C@H](O)C(=O)N[C@@H]1C[C@H](N)[C@@H](O[C@H]2O[C@H](CN)[C@@H](O)[C@H](O)[C@H]2O)[C@H](O)[C@H]1O[C@H]1O[C@H](CO)[C@@H](O)[C@H](N)[C@H]1O    0.5
CCN1CCN(C(=O)N[C@@H](C(=O)N[C@@H]2C(=O)N3[C@@H]2SC(C)(C)[C@@H]3C(=O)O)c2ccccc2)C(=O)C1=O    512
C[C@@H](O)[C@H]1C(=O)N2C(C(=O)O)=C(S[C@@H]3CN[C@H](C(=O)N(C)C)C3)[C@H](C)[C@H]12    8

Ask: Please provide the recorded MIC for CO[C@@]1(NC(=O)Cc2cccs2)C(=O)N2C(C(=O)O)=C(COC(N)=O)CS[C@@H]21 , tested on Acinetobacter pittii.
Result: 256

====

Tested on: Acinetobacter pittii
experiment: Antimicrobial activity against Acinetobacter genospecies 3 isolate Ac057 expressing beta-lactamase Oxa-58 by broth microdilution method
Assay type: functional
endpoint-label: MIC (µg/mL)
Field: numeric (µg/mL). Do not append units.

Solved entries (count: 5):
CC(=O)OCC1=C(C(=O)O)N2C(=O)[C@@H](NC(=O)Cc3cccs3)[C@H]2SC1 [CEPHALOTHIN]    256
O=C(O)c1cn(C2CC2)c2cc(N3CCNCC3)c(F)cc2c1=O [CIPROFLOXACIN]    32
NC[C@H]1O[C@H](O[C@H]2[C@H](O)[C@@H](O[C@H]3O[C@H](CO)[C@@H](O)[C@H](N)[C@H]3O)[C@H](N)C[C@@H]2N)[C@H](N)C[C@@H]1O [TOBRAMYCIN]    0.25
CO/N=C(\C(=O)N[C@@H]1C(=O)N2C(C(=O)[O-])=C(C[N+]3(C)CCCC3)CS[C@H]12)c1csc(N)n1 [CEFEPIME]    8
CC1(C)S[C@@H]2[C@H](NC(=O)[C@H](N)c3ccccc3)C(=O)N2[C@H]1C(=O)O [AMPICILLIN]    256

Ask: Given CC(C)(O/N=C(\C(=O)N[C@@H]1C(=O)N2C(C(=O)[O-])=C(C[n+]3ccccc3)CS[C@H]12)c1csc(N)n1)C(=O)O [CEFTAZIDIME] , state its recorded MIC.
Result: 8

====

Tested on: Acinetobacter baumannii
experiment: Antimicrobial activity against Acinetobacter baumannii isolate Ac058 expressing beta-lactamase Oxa-58 by broth microdilution method
Type: functional
Reported MIC values for the following compounds.
Field: numeric (µg/mL). Do not append units.

CC[C@H]1OC(=O)[C@H](C)[C@@H](O[C@H]2C[C@@](C)(OC)[C@@H](O)[C@H](C)O2)[C@H](C)[C@@H](O[C@@H]2O[C@H](C)C[C@H](N(C)C)[C@H]2O)[C@](C)(O)C[C@@H](C)CN(C)[C@H](C)[C@@H](O)[C@]1(C)O    128
C[C@H]1c2cccc(O)c2C(=O)C2=C(O)[C@]3(O)C(=O)C(C(N)=O)=C(O)[C@@H](N(C)C)[C@@H]3[C@@H](O)[C@@H]21.O    16
NCC[C@H](O)C(=O)N[C@@H]1C[C@H](N)[C@@H](O[C@H]2O[C@H](CN)[C@@H](O)[C@H](O)[C@H]2O)[C@H](O)[C@H]1O[C@H]1O[C@H](CO)[C@@H](O)[C@H](N)[C@H]1O    256

Ask: Given CC1(C)S[C@@H]2[C@H](NC(=O)[C@H](N)c3ccccc3)C(=O)N2[C@H]1C(=O)O , state its recorded MIC.
Result: 256

Ask: Given CO[C@H]1/C=C/O[C@@]2(C)Oc3c(C)c(O)c4c(O)c(c(/C=N/N5CCN(C)CC5)c(O)c4c3C2=O)NC(=O)/C(C)=C\C=C\[C@H](C)[C@H](O)[C@@H](C)[C@@H](O)[C@@H](C)[C@H](OC(C)=O)[C@@H]1C , state its recorded MIC.
Result: 2

====

Test system: Acinetobacter baumannii
experiment: Antimicrobial activity against Acinetobacter baumannii isolate Ac058 expressing beta-lactamase Oxa-58 by broth microdilution method
Assay type: functional
Reported MIC values for the following compounds.

NC[C@H]1O[C@H](O[C@H]2[C@H](O)[C@@H](O[C@H]3O[C@H](CO)[C@@H](O)[C@H](N)[C@H]3O)[C@H](N)C[C@@H]2N)[C@H](N)C[C@@H]1O [TOBRAMYCIN]    64 µg/mL

Ask: Please provide the recorded MIC for CO[C@@]1(NC(=O)Cc2cccs2)C(=O)N2C(C(=O)O)=C(COC(N)=O)CS[C@@H]21 [CEFOXITIN] , tested on Acinetobacter baumannii.
Result: 256 µg/mL

Ask: Please provide the recorded MIC for CC(C)(O/N=C(\C(=O)N[C@@H]1C(=O)N2C(C(=O)[O-])=C(C[n+]3ccccc3)CS[C@H]12)c1csc(N)n1)C(=O)O [CEFTAZIDIME] , tested on Acinetobacter baumannii.
Result: 256 µg/mL

Ask: Please provide the recorded MIC for CCN1CCN(C(=O)N[C@@H](C(=O)N[C@@H]2C(=O)N3[C@@H]2SC(C)(C)[C@@H]3C(=O)O)c2ccccc2)C(=O)C1=O [PIPERACILLIN] , tested on Acinetobacter baumannii.
Result: 512 µg/mL

Ask: Please provide the recorded MIC for CO/N=C(\C(=O)N[C@@H]1C(=O)N2C(C(=O)[O-])=C(C[N+]3(C)CCCC3)CS[C@H]12)c1csc(N)n1 [CEFEPIME] , tested on Acinetobacter baumannii.
Result: 64 µg/mL

Ask: Please provide the recorded MIC for C[C@@H](O)[C@H]1C(=O)N2C(C(=O)O)=C(S[C@@H]3CN[C@H](C(=O)N(C)C)C3)[C@H](C)[C@H]12 [MEROPENEM] , tested on Acinetobacter baumannii.
Result: 8 µg/mL

Ask: Please provide the recorded MIC for CC(=O)OCC1=C(C(=O)O)N2C(=O)[C@@H](NC(=O)Cc3cccs3)[C@H]2SC1 [CEPHALOTHIN] , tested on Acinetobacter baumannii.
Result: 256 µg/mL

FYI, the data here is from ChEMBL document CHEMBL1275464.
